System: PC-3;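 also: cell viability assay measuring growth inhibition of PC-3 cells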
experiment: cells
Format: functional, cell-based, Homo sapiens
conditionDetails: Homo sapiens, PC-3
Description: SANGER: Inhibition of human PC-3 cell growth in a cell viability assay.
propertyMeasured: pIC50
Numbers only, as −log10 of the molar value.

Nc1ccn([C@@H]2O[C@H](CO)[C@@H](O)[C@@H]2O)c(=O)n1 ... 5.89

Turning to the following compound.
Q: For the compound "C=CCNC1=C2C[C@@H](C)C[C@H](OC)[C@H](O)[C@@H](C)/C=C(\C)[C@H](OC(N)=O)[C@@H](OC)/C=C\C=C(/C)C(=O)NC(=CC1=O)C2=O" , give its measured pIC50 value.
A: 6.29

* * *

Tested on: RO82-W-1;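 also: growth inhibition of human RO82-W-1 cells, measured with a cell viability assay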
experiment: cells
Format: functional, cell-based, Homo sapiens
conditionDetails: Homo sapiens, RO82-W-1
Description: SANGER: Inhibition of human RO82-W-1 cell growth in a cell viability assay.
pIC50: −log10 of the molar value.
Please provide measured pIC50 for the entries that follow.

Quick one: give me pIC50 for each item below, same order please.
1. CCOc1nc(NC(=O)Cc2cc(OC)ccc2OC)cc(N)c1C#N
2. COc1cc([C@@H]2c3cc4c(cc3[C@@H](O[C@@H]3O[C@@H]5CO[C@@H](C)O[C@H]5[C@H](O)[C@H]3O)[C@H]3COC(=O)[C@H]23)OCO4)cc(OC)c1O [ETOPOSIDE]
3. O=c1cc(-c2cccc3c2Sc2ccccc2S3)oc(N2CCOCC2)c1 [KU-55933]
4. CN(c1ncccc1CNc1nc(Nc2ccc3c(c2)CC(=O)N3)ncc1C(F)(F)F)S(C)(=O)=O [PF-00562271]
5. COc1ccc(-c2ccc3c(N4CCOC[C@@H]4C)nc(N4CCOC[C@@H]4C)nc3n2)cc1CO [AZD-8055]
6. Cc1cnc(-c2cnc(NCCNc3ccc(C#N)cn3)nc2-c2ccc(Cl)cc2Cl)[nH]1 [LADUVIGLUSIB]

A:
1. < 5.00
2. < 4.80
3. < 5.00
4. < 5.59
5. 5.82
6. < 5.59
